target: EGFR, P00533 [L861Q]
Sequence (P00533 whole entry L861Q, looked up): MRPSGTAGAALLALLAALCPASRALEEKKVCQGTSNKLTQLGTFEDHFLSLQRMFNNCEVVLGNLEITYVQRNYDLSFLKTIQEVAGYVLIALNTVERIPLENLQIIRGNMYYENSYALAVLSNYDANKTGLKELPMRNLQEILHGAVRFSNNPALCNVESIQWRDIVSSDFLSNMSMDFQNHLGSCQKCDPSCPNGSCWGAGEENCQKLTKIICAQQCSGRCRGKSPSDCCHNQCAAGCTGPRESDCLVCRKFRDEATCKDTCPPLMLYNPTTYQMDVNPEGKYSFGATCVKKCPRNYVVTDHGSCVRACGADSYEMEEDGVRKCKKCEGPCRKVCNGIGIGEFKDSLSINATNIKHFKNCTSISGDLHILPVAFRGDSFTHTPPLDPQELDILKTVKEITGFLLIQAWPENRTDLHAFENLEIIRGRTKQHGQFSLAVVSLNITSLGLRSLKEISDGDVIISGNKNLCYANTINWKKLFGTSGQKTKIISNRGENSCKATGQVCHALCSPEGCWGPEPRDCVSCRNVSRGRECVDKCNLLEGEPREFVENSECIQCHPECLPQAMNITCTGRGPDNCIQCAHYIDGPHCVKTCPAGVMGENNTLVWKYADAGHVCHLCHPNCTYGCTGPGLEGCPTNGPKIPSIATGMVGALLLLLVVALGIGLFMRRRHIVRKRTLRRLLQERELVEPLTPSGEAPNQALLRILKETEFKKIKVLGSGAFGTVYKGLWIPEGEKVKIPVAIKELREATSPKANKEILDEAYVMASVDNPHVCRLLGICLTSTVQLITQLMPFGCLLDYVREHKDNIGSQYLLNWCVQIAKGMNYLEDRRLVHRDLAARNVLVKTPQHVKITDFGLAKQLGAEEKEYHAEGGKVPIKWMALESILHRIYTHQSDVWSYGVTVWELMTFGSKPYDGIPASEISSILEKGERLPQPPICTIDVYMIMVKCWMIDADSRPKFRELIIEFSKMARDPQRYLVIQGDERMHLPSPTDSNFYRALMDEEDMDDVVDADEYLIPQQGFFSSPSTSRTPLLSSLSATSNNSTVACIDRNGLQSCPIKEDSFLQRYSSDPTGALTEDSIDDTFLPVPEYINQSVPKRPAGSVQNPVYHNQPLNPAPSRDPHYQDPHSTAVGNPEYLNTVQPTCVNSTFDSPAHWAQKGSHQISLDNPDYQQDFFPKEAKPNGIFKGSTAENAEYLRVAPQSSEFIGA
pIC50: −log10 of the molar value.

{"STRUCTURE AS SMILES": "O=C(Nc1cccc(Nc2cc(Nc3cccc(C(F)(F)F)c3)ncn2)c1)C1CC1", "pIC50": 8.40}

====

Listed compounds paired with reported IC50
target: EGFR (UniProt P00533)
Sequence (P00533 whole entry, looked up): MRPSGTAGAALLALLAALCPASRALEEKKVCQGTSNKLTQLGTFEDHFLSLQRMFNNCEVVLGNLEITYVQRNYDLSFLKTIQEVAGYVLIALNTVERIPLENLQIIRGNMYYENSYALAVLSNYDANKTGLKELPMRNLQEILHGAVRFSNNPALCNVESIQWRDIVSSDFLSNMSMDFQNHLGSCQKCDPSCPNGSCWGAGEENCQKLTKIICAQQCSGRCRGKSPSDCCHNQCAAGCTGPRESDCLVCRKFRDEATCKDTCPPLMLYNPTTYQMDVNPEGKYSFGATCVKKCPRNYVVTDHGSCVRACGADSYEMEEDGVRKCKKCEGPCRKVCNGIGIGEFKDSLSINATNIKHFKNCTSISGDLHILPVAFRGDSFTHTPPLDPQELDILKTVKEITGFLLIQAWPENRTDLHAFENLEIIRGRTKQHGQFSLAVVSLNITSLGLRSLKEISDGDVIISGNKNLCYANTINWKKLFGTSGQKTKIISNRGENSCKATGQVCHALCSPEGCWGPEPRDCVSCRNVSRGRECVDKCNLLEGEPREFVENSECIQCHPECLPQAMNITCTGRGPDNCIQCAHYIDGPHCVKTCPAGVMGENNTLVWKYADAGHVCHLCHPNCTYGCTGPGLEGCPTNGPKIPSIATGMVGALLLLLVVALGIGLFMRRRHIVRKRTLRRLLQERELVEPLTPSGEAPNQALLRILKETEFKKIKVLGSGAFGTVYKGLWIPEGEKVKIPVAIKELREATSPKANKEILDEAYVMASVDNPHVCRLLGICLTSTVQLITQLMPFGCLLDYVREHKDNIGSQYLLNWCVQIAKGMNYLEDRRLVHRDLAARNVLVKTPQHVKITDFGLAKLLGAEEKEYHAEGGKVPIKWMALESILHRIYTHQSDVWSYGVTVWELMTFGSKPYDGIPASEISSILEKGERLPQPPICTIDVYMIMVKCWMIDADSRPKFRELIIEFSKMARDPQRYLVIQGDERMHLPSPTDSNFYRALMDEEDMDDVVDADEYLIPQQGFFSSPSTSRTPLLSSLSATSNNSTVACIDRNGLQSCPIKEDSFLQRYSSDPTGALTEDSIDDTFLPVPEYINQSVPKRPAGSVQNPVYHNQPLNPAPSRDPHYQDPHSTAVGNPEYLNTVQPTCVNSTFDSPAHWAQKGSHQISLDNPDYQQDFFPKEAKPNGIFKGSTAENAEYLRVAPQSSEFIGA
REPORTED ENDPOINT: IC50 (nM)

{"STRUCTURE AS SMILES": "CN(c1cccc(C(F)(F)F)c1)c1cc(Nc2cccc(NC(=O)C3CC3)c2)ncn1", "REPORTED ENDPOINT": "IC50", "OPERATOR": "=", "OBSERVED VALUE": 19}
{"STRUCTURE AS SMILES": "COc1ccc(OC)c(-c2cc(Nc3cccc(NC(=O)C4CC4)c3)ncn2)c1", "REPORTED ENDPOINT": "IC50", "OPERATOR": ">", "OBSERVED VALUE": 10000}
{"STRUCTURE AS SMILES": "FC(F)(F)c1cccc(Nc2cc(Nc3cccc(C(F)(F)F)c3)ncn2)c1", "REPORTED ENDPOINT": "IC50", "OPERATOR": "=", "OBSERVED VALUE": 32}
{"STRUCTURE AS SMILES": "COc1ccc(Cl)cc1-c1cc(Nc2cccc(NC(=O)C3CC3)c2)ncn1", "REPORTED ENDPOINT": "IC50", "OPERATOR": ">", "OBSERVED VALUE": 10000}
{"STRUCTURE AS SMILES": "O=C(Nc1cccc(Nc2cc(Nc3ccccc3Cl)ncn2)c1)C1CC1", "REPORTED ENDPOINT": "IC50", "OPERATOR": "=", "OBSERVED VALUE": 35}
{"STRUCTURE AS SMILES": "O=C(Nc1cccc(Nc2cc(Oc3cccc(C(F)(F)F)c3)ncn2)c1)C1CC1", "REPORTED ENDPOINT": "IC50", "OPERATOR": "=", "OBSERVED VALUE": 14}
{"STRUCTURE AS SMILES": "COc1ccc(Nc2cc(Nc3cccc(C(F)(F)F)c3)ncn2)cc1NC(=O)C1CC1", "REPORTED ENDPOINT": "IC50", "OPERATOR": "=", "OBSERVED VALUE": 120}
{"STRUCTURE AS SMILES": "CN(c1cccc(NC(=O)C2CC2)c1)c1cc(Nc2cccc(C(F)(F)F)c2)ncn1", "REPORTED ENDPOINT": "IC50", "OPERATOR": ">", "OBSERVED VALUE": 10000}

====

target: EGFR, P00533 [L858R]
Sequence (P00533 whole entry L858R, looked up): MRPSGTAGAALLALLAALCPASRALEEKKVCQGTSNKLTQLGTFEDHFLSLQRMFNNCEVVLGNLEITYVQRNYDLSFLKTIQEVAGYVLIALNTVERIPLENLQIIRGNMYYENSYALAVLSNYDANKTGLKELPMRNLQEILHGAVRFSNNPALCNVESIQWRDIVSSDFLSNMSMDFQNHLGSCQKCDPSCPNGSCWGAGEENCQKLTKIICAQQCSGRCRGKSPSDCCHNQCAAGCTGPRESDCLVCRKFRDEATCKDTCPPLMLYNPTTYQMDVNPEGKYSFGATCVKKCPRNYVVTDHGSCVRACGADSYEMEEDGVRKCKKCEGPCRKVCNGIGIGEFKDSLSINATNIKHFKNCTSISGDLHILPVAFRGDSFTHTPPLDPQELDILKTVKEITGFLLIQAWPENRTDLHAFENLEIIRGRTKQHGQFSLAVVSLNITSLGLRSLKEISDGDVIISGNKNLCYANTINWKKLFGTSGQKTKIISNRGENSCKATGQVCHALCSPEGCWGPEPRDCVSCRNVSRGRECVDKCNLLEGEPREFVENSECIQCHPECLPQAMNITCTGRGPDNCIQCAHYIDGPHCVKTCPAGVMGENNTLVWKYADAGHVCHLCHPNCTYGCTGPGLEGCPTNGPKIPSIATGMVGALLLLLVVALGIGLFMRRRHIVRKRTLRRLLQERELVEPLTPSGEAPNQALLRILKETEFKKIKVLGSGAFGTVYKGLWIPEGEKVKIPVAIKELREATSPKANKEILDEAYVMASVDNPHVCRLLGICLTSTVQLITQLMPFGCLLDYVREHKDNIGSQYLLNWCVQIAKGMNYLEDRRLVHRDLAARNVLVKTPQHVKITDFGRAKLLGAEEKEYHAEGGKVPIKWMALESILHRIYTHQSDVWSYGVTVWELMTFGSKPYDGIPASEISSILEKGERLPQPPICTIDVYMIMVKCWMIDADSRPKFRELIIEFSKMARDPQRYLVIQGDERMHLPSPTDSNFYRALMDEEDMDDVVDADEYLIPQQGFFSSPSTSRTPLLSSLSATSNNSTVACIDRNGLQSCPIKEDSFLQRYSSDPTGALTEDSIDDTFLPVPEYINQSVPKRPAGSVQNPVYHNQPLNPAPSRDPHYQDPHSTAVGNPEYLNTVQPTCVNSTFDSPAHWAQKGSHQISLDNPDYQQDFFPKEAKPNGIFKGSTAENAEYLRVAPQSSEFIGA

{"STRUCTURE AS SMILES": "O=C(Nc1cccc(Nc2cc(Nc3cccc(C(F)(F)F)c3)ncn2)c1)C1CC1", "TARGET OR TEST SYSTEM": "EGFR, P00533 [L858R]", "IC50, µM": 0.063}
